Parameter pIC50: see the listing below.
target_system: IRAK4 (Homo sapiens (Human))
test: IRAK4 Inhibition Assay
Assay type: biochemical
recorded_conditions: IRAK4 Inhibition Assay; ATP 500 μM; read-out: IRAK4 IC50
pIC50: −log10 of the molar value.
assay_endpoint: pIC50

>  <compound>
CCNc1cc(-n2ccc3cc(C#N)cnc32)ncc1C(=O)NC[C@@H](F)C(C)(C)O [Example 4]

>  <value>
8.85

$$$$
>  <compound>
CC(C)Nc1cc(-n2ncc3cc(Br)cnc32)ncc1C(=O)NC[C@@H](F)C(C)(C)O [Example 158]

>  <value>
8.38

$$$$
>  <compound>
CC(C)Nc1cc(-n2ccc3cc(C#N)cnc32)ncc1C(=O)NCCC(C)(C)O [Example 11]

>  <value>
8.77

$$$$
>  <compound>
CC(C)Nc1cc(-n2ncc3cc(C#N)cnc32)ncc1C(=O)NC[C@@H](F)C(=O)N[C@@H](C)CO [Example 230]

>  <value>
7.87

$$$$
>  <compound>
CC(C)CNC(=O)c1cnc(-n2ncc3cc(C#N)cnc32)cc1Nc1cnn(CC(F)F)c1 [Example 391]

>  <value>
8.21

$$$$
>  <compound>
CC(C)(C)Nc1cc(-n2ncc3cc(C#N)c(N)nc32)ncc1C(=O)NC[C@@H](F)C(C)(C)O [Example 293]

>  <value>
9.00

$$$$
>  <compound>
CC(=O)Nc1cnc2c(ccn2-c2cc(NC(C)C)c(C(=O)NC[C@@H](F)C(C)(C)O)cn2)c1 [Example 45]

>  <value>
7.63

$$$$
>  <compound>
CC(C)(O)[C@H](F)CNC(=O)c1cnc(-n2ccc3cc(C#N)cnc32)cc1Nc1ccc(-n2cncn2)cc1 [Example 68]

>  <value>
8.68

$$$$
>  <compound>
C[C@@H](CF)Nc1cc(-n2ccc3cc(C#N)cnc32)ncc1C(=O)NCCC(C)(C)O [Example 119]

>  <value>
8.36

$$$$
>  <compound>
CC(C)Nc1cc(-n2ncc3cc(C#N)cnc32)ncc1C(=O)NCCc1ccc(F)cc1 [Example 260]

>  <value>
8.48

$$$$
>  <compound>
CC(F)(F)Cn1cc(Nc2cc(-n3ncc4cc(Cl)cnc43)ncc2C(=O)NC[C@@H](F)C(C)(C)O)cn1 [Example 369]

>  <value>
8.72

$$$$
>  <compound>
CCNc1cc(-n2ccc3cc(C(N)=O)cnc32)ncc1C(=O)NC[C@@H](F)C(C)(C)O [Example 123]

>  <value>
8.35

$$$$
>  <compound>
CC(C)Nc1cc(-n2ccc3cc(C#N)cnc32)ncc1C(=O)NCCNC(=O)C(C)(C)O [Example 126]

>  <value>
8.12

$$$$
>  <compound>
CC(F)[C@H](C)Nc1cc(-n2ccc3cc(C#N)cnc32)ncc1C(=O)NC[C@@H](F)C(C)(C)O (stereo partly drawn) [Example 72]

>  <value>
8.70

$$$$
>  <compound>
CC(C)Nc1cc(-n2ccc3cc(C#N)cnc32)ncc1C(=O)N[C@H]1CC[C@](F)(c2nccn2C)CC1 [Example 181]

>  <value>
8.37

$$$$

* * *

Parameter log10 of IC50: see the listing below.
target_system: IRAK4 (Homo sapiens (Human), UniProt Q9NWZ3)
Sequence (Q9NWZ3 whole entry, species assumed): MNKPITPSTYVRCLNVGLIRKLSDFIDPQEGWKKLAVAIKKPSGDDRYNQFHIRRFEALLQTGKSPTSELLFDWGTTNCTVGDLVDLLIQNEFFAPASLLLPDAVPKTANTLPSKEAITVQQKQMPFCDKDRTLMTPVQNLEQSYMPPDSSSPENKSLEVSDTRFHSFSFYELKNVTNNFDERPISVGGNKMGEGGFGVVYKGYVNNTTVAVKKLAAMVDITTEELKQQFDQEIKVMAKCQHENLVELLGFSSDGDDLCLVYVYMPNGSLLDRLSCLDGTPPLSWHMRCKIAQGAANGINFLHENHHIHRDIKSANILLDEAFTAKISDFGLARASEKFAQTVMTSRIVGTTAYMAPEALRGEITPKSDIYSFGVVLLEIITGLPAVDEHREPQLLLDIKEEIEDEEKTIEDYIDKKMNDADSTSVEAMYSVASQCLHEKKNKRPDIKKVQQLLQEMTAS
test: IRAK4 Inhibition Assay
Format: biochemical
recorded_conditions: IRAK4 Inhibition Assay; ATP 500 μM; read-out: IRAK4 IC50
assay_endpoint: log10 of IC50 (log10 of the value in nM)

>  <molecule>
CC(C)Nc1cc(-n2ccc3cc(C#N)cnc32)ncc1C(=O)NCCNS(C)(=O)=O [Example 63]

>  <log10 of IC50>
0.61

$$$$
>  <molecule>
CC(C)(O)[C@H](F)CNC(=O)c1cnc(-n2ncc3cc(C#N)cnc32)cc1Nc1cnn(CCCF)c1 [Example 368]

>  <log10 of IC50>
0.38

$$$$
>  <molecule>
CC(C)Nc1cc(-n2ncc3cc(C#N)cnc32)ncc1C(=O)N[C@H]1CCCN(S(C)(=O)=O)C1 [Example 246]

>  <log10 of IC50>
1.30

$$$$
>  <molecule>
CC(C)Nc1cc(-n2ccc3cnc(N)nc32)ncc1C(=O)NC[C@@H](F)C(C)(C)O [Example 186]

>  <log10 of IC50>
0.11

$$$$
>  <molecule>
Cc1cnc2c(cnn2-c2cc(NC(C)C)c(C(=O)NC[C@@H](F)C(C)(C)O)cn2)c1 [Example 155]

>  <log10 of IC50>
0.85

$$$$
>  <molecule>
CC(C)Nc1cc(-n2ccc3cccnc32)ncc1C(=O)NC[C@@H](F)C(C)(C)O [Example 74]

>  <log10 of IC50>
0.63

$$$$
>  <molecule>
CC(C)Nc1cc(-n2ncc3cc(C#N)cnc32)ncc1C(=O)Nc1ccc(N2CCOCC2)nc1 [Example 216]

>  <log10 of IC50>
0.65

$$$$
>  <molecule>
CC(C)(O)[C@H](F)CNC(=O)c1cnc(-n2ncc3cc(Cl)cnc32)cc1Nc1cnn(CCCF)c1 [Example 367]

>  <log10 of IC50>
0.11

$$$$
>  <molecule>
CC(C)Nc1cc(-n2ncc3cc(C#N)c(N)nc32)ncc1C(=O)N[C@H](C)C1CC1 [Example 323]

>  <log10 of IC50>
1.24

$$$$
>  <molecule>
CC(C)Nc1cc(-n2ccc3cc(C#N)cnc32)ncc1C(=O)NC[C@H](F)C(C)(C)O [Example 23]

>  <log10 of IC50>
0.41

$$$$
>  <molecule>
CC(C)(O)[C@H](F)CNC(=O)c1cnc(-n2ncc3cc(C#N)cnc32)cc1NC1CC1 [Example 336]

>  <log10 of IC50>
0.58

$$$$
>  <molecule>
CC(C)(O)[C@H](F)CNC(=O)c1cnc(-n2ccc3cc(C#N)cnc32)cc1Nc1cccc(C(N)=O)c1 [Example 56]

>  <log10 of IC50>
0.40

$$$$
>  <molecule>
CCOC(C)(C)[C@H](F)CNC(=O)c1cnc(-n2ncc3cc(C#N)cnc32)cc1NC(C)C [Example 215]

>  <log10 of IC50>
0.57

$$$$
>  <molecule>
CC(C)(O)[C@H](F)CNC(=O)c1cnc(-n2cnc3cc(C#N)cnc32)cc1NC1CCOCC1 [Example 345]

>  <log10 of IC50>
0.87

$$$$
>  <molecule>
CC(C)(O)[C@H](F)CNC(=O)c1cnc(-n2ncc3cc(C#N)cnc32)cc1NCC(F)(F)F [Example 147]

>  <log10 of IC50>
1.08

$$$$
>  <molecule>
C[C@H](CF)Nc1cc(-n2ccc3cncnc32)ncc1C(=O)NC[C@@H](F)C(C)(C)O [Example 115]

>  <log10 of IC50>
0.52

$$$$
>  <molecule>
CNS(=O)(=O)N1CCC(NC(=O)c2cnc(-n3ncc4cc(C#N)cnc43)cc2NC(C)C)CC1 [Example 313]

>  <log10 of IC50>
1.17

$$$$
>  <molecule>
COC(C)(C)[C@H](F)CNC(=O)c1cnc(-n2ncc3cc(C#N)c(N)nc32)cc1NC(C)C [Example 321]

>  <log10 of IC50>
0.49

$$$$
>  <molecule>
CCS(=O)(=O)N1CCC(NC(=O)c2cnc(-n3ncc4cc(C#N)cnc43)cc2NC(C)C)CC1 [Example 290]

>  <log10 of IC50>
0.77

$$$$
>  <molecule>
CC(=O)N[C@H]1CC[C@H](NC(=O)c2cnc(-n3ncc4cc(C#N)c(N)nc43)cc2NC(C)C)CC1 [Example 317]

>  <log10 of IC50>
0.58

$$$$
>  <molecule>
CS(=O)(=O)[C@H]1CC[C@H](NC(=O)c2cnc(-n3ccc4cc(C#N)cnc43)cc2Nc2cccc(C(N)=O)c2)CC1 [Example 105]

>  <log10 of IC50>
0.59

$$$$
>  <molecule>
CC(C)Nc1cc(-n2ccc3cnc(N4CC[C@H](O)C4)nc32)ncc1C(=O)NC[C@@H](F)C(C)(C)O [Example 189]

>  <log10 of IC50>
0.68

$$$$
>  <molecule>
CCCCNC(=O)c1cnc(-n2ncc3cc(C#N)cnc32)cc1N[C@@H](C)CO [Example 319]

>  <log10 of IC50>
0.81

$$$$
>  <molecule>
CC(C)Nc1cc(-n2ccc3cc(C#N)cnc32)ncc1C(=O)NCC(=O)NC1CCS(=O)(=O)C1 (stereo not drawn) [Example 70]

>  <log10 of IC50>
0.45

$$$$
>  <molecule>
CC(C)(O)[C@H](F)CNC(=O)c1cnc(-n2ncc3cc(C#N)cnc32)cc1Nc1cnn(CC(F)F)c1 [Example 347]

>  <log10 of IC50>
0.11

$$$$
>  <molecule>
CC(C)(O)CCNC(=O)c1cnc(-n2ccc3cc(Cl)cnc32)cc1NC1CCOCC1 [Example 36]

>  <log10 of IC50>
0.49

$$$$
>  <molecule>
CC(CF)Nc1cc(-n2ccc3cc(C#N)cnc32)ncc1C(=O)NC[C@@H](F)C(C)(C)O (stereo partly drawn) [Example 78]

>  <log10 of IC50>
0.46

$$$$
>  <molecule>
CC(C)Nc1cc(-n2ncc3cc(C#N)c(N)nc32)ncc1C(=O)NCCC1CC1 [Example 299]

>  <log10 of IC50>
0.80

$$$$
>  <molecule>
CNC(=O)[C@H](F)CNC(=O)c1cnc(-n2ccc3cc(C#N)cnc32)cc1NC1CC1 [Example 132]

>  <log10 of IC50>
0.67

$$$$
>  <molecule>
CC(C)(O)[C@H](F)CNC(=O)c1cnc(-n2cnc3cc(C#N)cnc32)cc1Nc1cnn(CC(F)F)c1 [Example 375]

>  <log10 of IC50>
0.26

$$$$
